melting point values, listed per item

Consider the worked cases shown below.
INSERT INTO results (chemical_smiles, result_value) VALUES
  ('COc1cc(F)c(/C=C/c2ccc(C(=O)NO)cc2)cc1OC', '159 to 160 °C'),
  ('COc1cc(F)c(/C=C/c2ccc(/C=C/C(=O)NO)cc2)cc1OC', '185 to 186 °C'),
  ('COc1cc(Br)c(/C=C/c2ccc(/C=C/C(=O)NO)cc2)cc1OC', '120 to 121 °C'),
  ('O=C(NO)c1ccc(/C=C/c2cc(F)cc(F)c2)cc1', '266 to 267 °C');

Alright, here's another molecule for you.
Asked: Can you share its melting point? I mean this molecule: COc1ccc(/C=C/c2ccc(/C=C/C(=O)NO)cc2)cc1OC
Given back: 205 to 206 °C

---

target.of.assay: LSD1 (Homo sapiens)
test.protocol: LSD1 enzyme inhibition assay (H3K4me2 substrate, Amplex Red/HRP fluorescence)
reported.property: pIC50
Here pIC50 is given on a logarithmic scale as minus log10 of the concentration in mol/L.

Consider the worked cases shown below.
INSERT INTO results (compound, result_value) VALUES
  ('COc1cc(F)c(/C=C/c2ccc(/C=C/C(=O)NO)cc2)cc1OC [Compound 25]', 5.48),
  ('O=C(NO)c1ccc(/C=C/c2cc(F)cc(F)c2)cc1 [Compound 31]', 5.89),
  ('O=C(NO)c1ccc(/C=C/c2ccc3c(c2)CCO3)cc1 [Compound 33]', 5.71),
  ('COc1ccc(/C=C/c2ccc(C(=O)NO)cc2)cc1OC [Compound 30]', 6.09),
  ('COc1cc(/C=C/c2ccc(/C=C/C(=O)NO)cc2)cc(OC)c1 [Compound 26]', 5.29);

Asked: Can you share its pIC50? I mean this compound: COc1cc(Br)c(/C=C/c2ccc(/C=C/C(=O)NO)cc2)cc1OC [Compound 27]
Given back: 5.40

Asked: Can you share its pIC50? I mean this compound: COc1cc(/C=C/c2ccc(C(=O)NO)cc2)cc(OC)c1 [Compound 29]
Given back: 6.16

Asked: Can you share its pIC50? I mean this compound: COc1ccc(/C=C/c2ccc(/C=C/C(=O)NO)cc2)cc1OC [Compound 24]
Given back: 5.38

---

melting point values, listed per item

Consider the worked cases shown below.
INSERT INTO assay_data (molecule, reported_property, result_value) VALUES
  ('COc1cc(/C=C/c2ccc(/C=C/C(=O)NO)cc2)cc(OC)c1 [Compound 26]', 'melting point', '149 to 150 °C'),
  ('COc1cc(Br)c(/C=C/c2ccc(C(=O)NO)cc2)cc1OC', 'melting point', '163 to 164 °C'),
  ('COc1ccc(/C=C/c2ccc(C(=O)NO)cc2)cc1OC [Compound 30]', 'melting point', '197 to 198 °C');

Asked: Can you share its melting point? I mean this molecule: O=C(NO)c1ccc(/C=C/c2ccc3c(c2)CCO3)cc1 [Compound 33]
Given back: 193 to 194 °C
